# ASSAY_METHOD_TEXT: in vitro;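 further: filter plate membrane of 1% soybean lecithin in dodecane, donor and acceptor in 5% DMSO/PBS, incubated at 25 °C, peptide in both compartments measured by LC-MS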
# Type: in vitro ADME
# ASSAY_CONTEXT: PAMPA
Non-standard residues stand in square brackets, D forms with d. Residues, ends and D or L forms follow the SMILES beside them. dNMeL = CN[C@H](CC(C)C)C(=O)O
PARAMETER_MEASURED: Papp at 16 h, 2 μM (nm/s)

| MOLECULE | PARAMETER_MEASURED | VALUE_MEASURED |
| --- | --- | --- |
| CC(C)C[C@@H]1NC(=O)[C@@H](CC(C)C)N(C)C(=O)[C@H](CC(C)C)NC(=O)[C@H](Cc2ccc(O)cc2)NC(=O)[C@H]2CCCN2C(=O)[C@H](CC(C)C)NC1=O [MP3] (cyclo(LL[dP]YL[dNMeL])) | Papp at 16 h, 2 μM | 6 |
